# Target Entity: myostatin (Homo sapiens)
# Construct: To produce mature myostatin, the pooled promyostatin was enzymatically cleaved between the propeptide and mature myostatin C terminal; made in house
# Sequence (O14793 267-375): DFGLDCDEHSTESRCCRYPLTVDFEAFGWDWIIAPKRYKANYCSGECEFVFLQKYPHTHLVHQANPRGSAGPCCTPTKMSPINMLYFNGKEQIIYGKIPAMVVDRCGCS
# Assay Method Text: BIAcore affinity analysis on immobilized myostatin
# Format: binding
# Recorded Conditions: Biacore assay
pKd: −log10 of the molar value. Where no end group is shown, it is not given here.
Measured Parameter: pKd

substance="TN8-19: peptibody; peptide QGHCTRWPWMCPPY (cysteine pairing not given here; also: Fc fusion peptibody)" value=~8.70
